Source listed as patent US20250136619A1.

# assayedSystem: BRD4-BD2 (Homo sapiens (Human))
# assayOverview: bromoKdELECT assay for binding affinity to BRD4-BD2
Reported Kd is given for each of the following molecules.

molecule | Kd
Cc1sc2c(c1C)C(c1ccc(Cl)cc1)=N[C@@H](CC(=O)NCCOCCOCCOCCOCCOCCOC/C=C/C(=O)N1CCC[C@@H](n3nc(-c4ccc(Oc5ccccc5)cc4)c4c(N)ncnc43)C1)c1nnc(C)n1-2 [Compound I-26] | < 0.05 µM
Cc1sc2c(c1C)C(c1ccc(Cl)cc1)=N[C@@H](CC(=O)NCCCN1CCN(CCCN(C)C/C=C/C(=O)N3CCC[C@@H](n4nc(-c5ccc(Oc6ccccc6)cc5)c5c(N)ncnc54)C3)CC1)c1nnc(C)n1-2 [Compound I-29] | < 0.05 µM
Cc1sc2c(c1C)C(c1ccc(Cl)cc1)=N[C@@H](CC(=O)NCCOCCOC/C=C/C(=O)N1CCC[C@@H](n3nc(-c4ccc(Oc5ccccc5)cc4)c4c(N)ncnc43)C1)c1nnc(C)n1-2 [Compound I-24] | < 0.05 µM
